Each entry below carries its recorded activity at 10 min, 10 µM.
Test system: CYP1A
methodNotes: Liver microsomal CYP1A enzymatic activity, inhibition or enhancement
settings: nude, mouse, liver microsomes, pH 7.8, probe 7-ethoxyresorufin
Give just the number in %; leave the unit off.

Query for CYP1A: what activity at 10 min, 10 µM does the record show for O=c1c(O)c(-c2ccc(O)c(O)c2)oc2cc(O)cc(O)c12 [Quercetin] ?
86.7

Query for CYP1A: what activity at 10 min, 10 µM does the record show for O=c1cc(-c2ccc(O)c(O)c2)oc2cc(O)cc(O)c12 [Luteolin] ?
104

Query for CYP1A: what activity at 10 min, 10 µM does the record show for CCCCCCCCCCCCO [Lauryl alcohol] ?
115

Query for CYP1A: what activity at 10 min, 10 µM does the record show for CC1(C)CC[C@]2(C(=O)O)CC[C@]3(C)C(=CC[C@@H]4[C@@]5(C)CC[C@H](O)C(C)(C)[C@@H]5CC[C@]43C)[C@@H]2C1 [Oleanolic acid] ?
99.9

---

Test system: CYP1A
methodNotes: Liver microsomal CYP1A enzymatic activity, inhibition or enhancement
settings: nude, mouse, liver microsomes, pH 7.8, probe 7-ethoxyresorufin
attributeMeasured: activity at 10 min, 10 µM (%)
Give just the number in %; leave the unit off.

- molecule: "C[C@@H]1O[C@@H](OC[C@H]2O[C@@H](Oc3c(-c4ccc(O)c(O)c4)oc4cc(O)cc(O)c4c3=O)[C@H](O)[C@@H](O)[C@@H]2O)[C@H](O)[C@H](O)[C@H]1O [Rutin]"
  systemTested: "CYP1A"
  attributeMeasured: "activity at 10 min, 10 µM"
  observedMeasurement: 124

Form field: reported activity at 10 min, 10 µM of C[C@@]12C[C@@]3(O)O[C@@H](O1)[C@]1(COC(=O)c4ccccc4)[C@H]3C[C@@]12O[C@@H]1O[C@H](CO)[C@@H](O)[C@H](O)[C@H]1O [Paeoniflorin]
124

Form field: reported activity at 10 min, 10 µM of O=c1c(O)c(-c2ccc(O)cc2)oc2cc(O)cc(O)c12 [Kaempferol]
68.9

---

Tested on: dermal CYP1A
methodNotes: Dermal microsomal CYP1A enzymatic activity (7-ethoxyresorufin-O-deethylase), inhibition or enhancement
settings: at certain concentration (1, 10 or 100 μM)
attributeMeasured: inhibitory effect on dermal CYP1A activity, in words

- molecule: "Oc1cc(O)c2c(c1)O[C@H](c1ccc(O)c(O)c1)[C@@H](O)C2 [(+)-Catechin]"
  observedMeasurement: "inhibition effects"
- molecule: "O=c1c(-c2ccc(O)cc2)coc2cc(O[C@@H]3O[C@H](CO)[C@@H](O)[C@H](O)[C@H]3O)ccc12 [Daidzin]"
  observedMeasurement: "inhibition effects"
- molecule: "O=C1C[C@@H](c2ccc(O)cc2)Oc2cc(O)cc(O)c21 [Narigenin]"
  observedMeasurement: "inhibition effects"
